experimentDescription: In vitro for inhibition of specific binding of [125I]-angiotensin II (0.2 nM) to bovine adrenal cortex
readout: pIC50
pIC50 field: float, defined as -log10 of concentration (mol/L).

Example entries and their recorded answers appear below.
>>> resultnumber("CCCCc1nc2cc(C(=O)OC)ccc2n1Cc1ccc(-c2ccccc2-c2nn[nH]n2)cc1")
6.13
>>> resultnumber("CCCCc1nc2cc(C)cc(C(=O)O)c2n1Cc1ccc(-c2ccccc2-c2nn[nH]n2)cc1")
5.89
>>> resultnumber("CCCCc1nc2ccccc2n1Cc1ccc(-c2ccccc2-c2nn[nH]n2)cc1")
6.05
>>> resultnumber("CCCCc1nc2cccc(O)c2n1Cc1ccc(-c2ccccc2-c2nn[nH]n2)cc1")
5.96
>>> resultnumber("CCCCc1nc2ccc(C)c(C(=O)O)c2n1Cc1ccc(-c2ccccc2-c2nn[nH]n2)cc1")
6.47

Task: Item CCCCc1nc2cccc(C(=O)O)c2n1Cc1ccc(-c2ccccc2C(=O)O)cc1 has what recorded pIC50?
Result: 6.18

Task: Any idea what its pIC50 is? The compound is CCCCc1nc2cccc(C(=O)NC(C)C)c2n1Cc1ccc(-c2ccccc2-c2nn[nH]n2)cc1
Result: 6.27

Task: // query pIC50 value for entry CCCCc1nc2cccc(C)c2n1Cc1ccc(-c2ccccc2-c2nn[nH]n2)cc1
Result: 6.48

* * *

experimentDescription: In vitro for inhibition of specific binding of [125I]-angiotensin II (0.2 nM) to bovine adrenal cortex
The label YES is reserved for IC50 strictly under 600 nM; NO covers values equal to or above it.

Examples from the recorded data:
>>> assignedclass("CCCCc1nc2cc(C)cc(C(=O)OC)c2n1Cc1ccc(-c2ccccc2-c2nn[nH]n2)cc1")
"NO"
>>> assignedclass("CCCCc1nc2c(C(=O)OC)cccc2n1Cc1ccc(-c2ccccc2-c2nn[nH]n2)cc1")
"NO"
>>> assignedclass("CCCCc1nc2cccc(CN(C)C)c2n1Cc1ccc(-c2ccccc2-c2nn[nH]n2)cc1")
"NO"

With those in mind, consider the next molecule.
Task: Quick check: does CCCCc1nc2cccc(CO)c2n1Cc1ccc(-c2ccccc2-c2nn[nH]n2)cc1 have IC50 under 600 nM?
Result: YES

* * *

experimentDescription: In vitro for inhibition of specific binding of [125I]-angiotensin II (0.02 nM) to bovine adrenal cortex
Assay type: tissue-based, Bos taurus
readout: IC50 (nM)
Number in nM, nothing else.

Task: // query IC50 value for entry CCCCc1nc2ccc(C)c(C(=O)OCC)c2n1Cc1ccc(-c2ccccc2-c2nn[nH]n2)cc1
Result: 910

* * *

experimentDescription: In vitro for inhibition of specific binding of [125I]-angiotensin II (0.2 nM) to bovine adrenal cortex
Threshold 1000 nM. IC50 below it: rule met. IC50 at it or above: rule not met.

Example cases with answers are listed next.
>>> assignedclass("CCCCc1nc2cc(Cl)cc(C(=O)OC)c2n1Cc1ccc(-c2ccccc2-c2nn[nH]n2)cc1")
"rule met"
>>> assignedclass("CCCCc1nc2cccc(CC(=O)OCC)c2n1Cc1ccc(-c2ccccc2-c2nn[nH]n2)cc1")
"rule met"
>>> assignedclass("CCCCc1nc2cccc(C(=O)OCC)c2n1Cc1ccc(-c2ccccc2-c2nn[nH]n2)cc1")
"rule not met"
>>> assignedclass("CCCCc1nc2ccc(C(=O)O)cc2n1Cc1ccc(-c2ccccc2-c2nn[nH]n2)cc1")
"rule not met"
>>> assignedclass("CCCCc1nc2ccccc2n1Cc1ccc(-c2ccccc2C(=O)O)cc1")
"rule not met"
>>> assignedclass("CCCCc1nc2ccc(OC)cc2n1Cc1ccc(-c2ccccc2-c2nn[nH]n2)cc1")
"rule not met"
>>> assignedclass("CCCCc1nc2cccc(C(=O)OC)c2n1Cc1ccc(-c2ccccc2-c2nn[nH]n2)cc1")
"rule met"

Consider now this further molecule.
Task: Decide: IC50 of CCCCc1nc2cccc(C(=O)O)c2n1Cc1ccc(-c2ccccc2-c2nnnn2C)cc1 strictly below 1000 nM?
Result: rule not met
